# Test system: Saccharomyces cerevisiae;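 also: PSI is a weighted mean of sequencing reads over stability bins, variants kept only with over 10 reads, mCherry proximal and sfGFP distal, peptide attached via GGGS linker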
# protocol-notes: protein stability index of tFT-peptide fusion (C-terminal peptide) (PSI (0-1 scale)); higher = more stable (slower turnover)
# test-settings: genetic background: wild type; temperature: 30 C
Label MET for high-side protein stability index (at or above 0.7) and NOT MET for low-side protein stability index (below it).

Use these answered entries as a reference point.
| entry-sequence | test-target | label |
| --- | --- | --- |
| IERFKKMRGVGS | Saccharomyces cerevisiae | MET |
| FPRPACRSTHIL | Saccharomyces cerevisiae | NOT MET |
| PPRLHPAPPPRT | Saccharomyces cerevisiae | MET |
| FLSHISVPRGKT | Saccharomyces cerevisiae | MET |
| TSCPPAHLPPPP | Saccharomyces cerevisiae | NOT MET |

Identify whether the reported protein stability index of the following sequence is 0.7 or greater: RLGGTMVVGTGG NOT MET

Given the entry WVAGPWLGRVQE , answer whether its protein stability index meets or surpasses 0.7. MET

Threshold query (protein stability index >= 0.7) on KKICPDFGLLLV NOT MET

Could you tell me if the measured protein stability index of PPCLYPFPPPSR reaches 0.7 or more? NOT MET

Has GALYAGWRGPTC a recorded protein stability index greater than or equal to 0.7? NOT MET

Recorded values, source the supplement of paper PMC10724198.
